Just for reference, the supplement of paper PMC10949913 is where these values come from.

# area under concentration-response curve per entry
- Test system: CU-ACC2
- ASSAY_NAME: area under concentration-response curve (viability) (AUC (a.u.)); higher = less active
- CONDITION_LABEL: 48 h
// keep it numeric: no unit symbol after the value

Recorded area under concentration-response curve, per entry:
MOLECULE: CN1CCN(C(=O)[C@H]2[C@@H](C(=O)O)[C@H]3CC[C@@H]2O3)CC1
area under concentration-response curve: 699
//
MOLECULE: O=C1\C=C(OC2=C1SC=C2C3=CC=C4OCCOC4=C3)\N5CCOCC5
area under concentration-response curve: 276
//
MOLECULE: CC(C)C[C@H](NC(=O)CNC(=O)c1cc(Cl)ccc1Cl)B(O)O
area under concentration-response curve: 373
//
MOLECULE: O=C1CC[C@@]2(O)[C@H]3Cc4ccc(O)c5c4[C@@]2(CCN3CC2CC2)[C@H]1O5
area under concentration-response curve: 623

Item: CO[C@H]1CC[C@H](N(c2cc(C3=CCCCC3)sc2C(=O)[O-])C(=O)[C@H]2CC[C@H](C)CC2)CC1 | System: CU-ACC2 | area under concentration-response curve: 613

Item: CCC(=O)NCC[C@@H]1CCc2ccc3c(c21)CCO3 | System: CU-ACC2 | area under concentration-response curve: 564

Item: COc1ccc(C(=O)c2c(C)n(CCN3CCOCC3)c3ccccc23)cc1 | System: CU-ACC2 | area under concentration-response curve: 431

---

- System: CU-ACC1
- ASSAY_NAME: area under concentration-response curve (viability) (AUC (a.u.)); higher = less active
- CONDITION_LABEL: 48 h
MEASURED_PROPERTY: area under concentration-response curve

Recorded area under concentration-response curve, per entry:
SMI: COC(=O)N[C@@H](C)CNc1nccc(-c2cn(C(C)C)nc2-c2cc(Cl)cc(N[S+](C)(=O)[O-])c2F)n1
MEASURED_PROPERTY: area under concentration-response curve
READING: 497

SMI: Cc1noc2c1-c1ccccc1C(c1ccc(Cl)cc1)=N[C@H]2CC(N)=O
MEASURED_PROPERTY: area under concentration-response curve
READING: 495

Data point: CC(C)(C)C#Cc1cc(N(C(=O)[C@H]2CC[C@H](C)CC2)[C@H]2CC[C@@H](O)CC2)c(C(=O)O)s1 ; area under concentration-response curve = 497

---

# area under concentration-response curve per entry
- Tested on: CU-ACC1
- ASSAY_NAME: area under concentration-response curve (viability) (AUC (a.u.)); higher = less active
- CONDITION_LABEL: 48 h
// keep it numeric: no unit symbol after the value

COMPOUND: Cc1nnn(C)c1-c1cnc2c3ccc(C(C)(C)O)cc3n([C@H](c3ccccc3)C3CCOCC3)c2c1
area under concentration-response curve: 416

COMPOUND: COc1cc2c(cc1O)CCN[C@]21CS[C@@H]2c3c(OC(C)=O)c(C)c4c(c3[C@H](COC1=O)N1[C@@H]2[C@H]2c3c(cc(C)c(OC)c3O)C[C@@H]([C@@H]1O)N2C)OCO4
area under concentration-response curve: 285

COMPOUND: C[S+]([O-])(=O)NC1=CC2=C(C=C1OC3=CC=CC=C3)C(=O)\C(=C/O2)NC=O
area under concentration-response curve: 477

COMPOUND: CCCCc1ccc2[nH]c(NC(=O)OC)nc2c1
area under concentration-response curve: 480

COMPOUND: Cc1oncc1C(=O)Nc1ccc(C(F)(F)F)cc1
area under concentration-response curve: 421

COMPOUND: C[N]1C=C(C=N1)C2=C3\C=N/NC(=O)C4=C3C(=CC(=C4)NC(=O)[C@H](N)C5CCCCC5)[NH]2
area under concentration-response curve: 530

Data point: CO[C@@H](C(=O)N1Cc2[nH]nc(NC(=O)c3ccc(N4CCN(C)CC4)cc3)c2C1)c1ccccc1 ; area under concentration-response curve = 539

Data point: CC/1=C2/N(C(=O)C(=C1)/NC3=CC(=NC=N3)N)C4(CCCCC4)NC2=O ; area under concentration-response curve = 594

Data point: N#Cc1ccc(NC(=O)Nc2ccccc2Br)c2nn[nH]c12 ; area under concentration-response curve = 573

Data point: C=CC(=O)Nc1cc(Nc2nccc(-c3cn(C)c4ccccc34)n2)c(OC)cc1N(C)CCN(C)C ; area under concentration-response curve = 393

Data point: COc1cc2nccc(Oc3ccc(NC(=O)Nc4ccc(F)cc4F)c(F)c3)c2cc1OC ; area under concentration-response curve = 548

Data point: O=C1NC(=O)/C(=C/c2ccc(-c3ccc(F)cc3O)o2)S1 ; area under concentration-response curve = 580

Data point: CCOC(=O)\C1=C(/C)N\C2=C(C1C3=CC=C(C=C3)C4=CC=CC=C4)\C(=O)CC(C)(C)C2 (stereo not drawn) ; area under concentration-response curve = 552
